The measurements presented in this section are drawn from PubChem BioAssay AID1533.

# system name: dTDP-4-dehydrorhamnose reductase (Mycobacterium tuberculosis (strain ATCC 25618 / H37Rv)) + dTDP-4-dehydrorhamnose 3,5-epimerase (Mycobacterium tuberculosis (strain ATCC 25618 / H37Rv)) (UniProt P9WH09+P9WH11)
# Sequence (P9WH09 whole entry, looked up): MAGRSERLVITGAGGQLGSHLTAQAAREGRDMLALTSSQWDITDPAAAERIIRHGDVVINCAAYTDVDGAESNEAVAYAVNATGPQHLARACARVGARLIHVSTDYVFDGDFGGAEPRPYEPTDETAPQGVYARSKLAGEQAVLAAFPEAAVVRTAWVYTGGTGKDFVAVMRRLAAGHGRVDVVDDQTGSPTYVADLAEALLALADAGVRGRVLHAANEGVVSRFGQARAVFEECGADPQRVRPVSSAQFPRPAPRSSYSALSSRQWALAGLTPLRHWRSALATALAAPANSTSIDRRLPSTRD
# Sequence (P9WH11 whole entry, looked up): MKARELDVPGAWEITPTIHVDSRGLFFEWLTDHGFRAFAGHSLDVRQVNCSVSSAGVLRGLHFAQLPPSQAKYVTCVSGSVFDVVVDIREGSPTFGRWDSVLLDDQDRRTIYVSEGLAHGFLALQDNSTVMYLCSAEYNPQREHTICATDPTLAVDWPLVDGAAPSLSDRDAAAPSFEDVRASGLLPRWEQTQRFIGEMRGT
# test: M. tuberculosis RmlC/RmlD coupled enzyme inhibitors, primary screen, biochemical, compound mixtures, 384-well, from 1536-well plates (AID 1533)
# experimental setup: RmlC+RmlD coupled enzyme assay, percent inhibition; primary screen in compound mixtures; at 3.6 µM; active compounds read high
The whole screen tested about 160,000 compounds, of which about 45 (0.03%) were called active. Shown is part of a subset that was picked to be rich in actives.
experimental endpoint: inhibition (%)
Report only the number, with the unit % understood.

Inquiry: Fill in the blank: the reported inhibition of O=S(=O)(NCc1ccco1)c1cnc(Cl)c(Cl)c1 is ____.
Reply text: 11.4

Inquiry: Fill in the blank: the reported inhibition of CCCCc1nnc(NC(=O)CSc2nc(N)cc(=O)[nH]2)s1 is ____.
Reply text: -1.44

Inquiry: Fill in the blank: the reported inhibition of CCn1c(CSCc2c(Cl)cccc2Cl)n[nH]c1=S is ____.
Reply text: -0.03

Inquiry: Fill in the blank: the reported inhibition of COCCSc1nnc(NC(=O)c2cc(OC)c(OC)cc2[N+](=O)[O-])s1 is ____.
Reply text: 15.5

Inquiry: Fill in the blank: the reported inhibition of O=[N+]([O-])c1ccc(N=Cc2c(O)ccc3ccccc23)cc1 is ____.
Reply text: -17.6

Inquiry: Fill in the blank: the reported inhibition of CC1=NN(c2ccccc2)C(=O)C1C(=O)c1ccc([N+](=O)[O-])cc1 (stereo unspecified) is ____.
Reply text: 4.71
